Values from patent US6413517B1

Molecular target: DRB1*0301 (DR3w17) (Homo sapiens, UniProt P01903+P01911, A100K/A102G/A103R/A169T/F55Y/I96L/K41T/L162R/M171V/P40S/Q125H/Q178H/Q39Y/R42S/S66N/T106N/T262R/W38E/Y61H)
Details: read-out: Binding Capacity (IC 50% nM) Other Alleles DR3

{"compound": "CC(C)C[C@H](NC(=O)CN)C(=O)N[C@@H](C)C(=O)N[C@@H](Cc1ccc(O)cc1)C(=O)N[C@@H](CCCCN)C(=O)N[C@@H](Cc1ccccc1)C(=O)N[C@H](C(=O)N[C@H](C(=O)N1CCC[C@H]1C(=O)NCC(=O)N[C@@H](C)C(=O)N[C@@H](C)C(=O)N[C@H](C(=O)N1CCC[C@H]1C(=O)N[C@@H](Cc1ccc(O)cc1)C(=O)O)[C@@H](C)O)C(C)C)C(C)C [Peptide 1188.32]", "IC50": "> 1000 nM"}
